The measurements presented in this section are drawn from patent US20050058639A1.

I'd be grateful if you could share measured ELISA OD for these entries.
Target entity: T1, recombinant human MCP-3 (human, UniProt P80098 24-99)
T1 construct: also called rhMCP-3
T1 sequence (P80098 24-99 limits assumed): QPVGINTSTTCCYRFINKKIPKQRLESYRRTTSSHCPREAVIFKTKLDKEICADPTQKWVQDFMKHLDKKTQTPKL
Assay comment: ELISA, coated antigen
Express it in OD450; write the number only.

**Query** Using the record for anti-MCP-1 mAb 3.4.1 (antibody, V domains shown) VH: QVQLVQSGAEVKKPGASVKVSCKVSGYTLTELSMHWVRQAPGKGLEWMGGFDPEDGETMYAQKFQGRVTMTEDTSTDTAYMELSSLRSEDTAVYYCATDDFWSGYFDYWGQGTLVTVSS VL: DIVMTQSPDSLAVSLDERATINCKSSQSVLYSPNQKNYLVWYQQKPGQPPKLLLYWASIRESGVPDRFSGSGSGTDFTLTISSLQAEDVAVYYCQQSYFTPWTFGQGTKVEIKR , state its measured ELISA OD.
**Result** 0.05

**Query** Using the record for anti-MCP-1 mAb 3.10.1 (antibody, V domains shown) VH: QVQLVQSGAEVKKPGASVKVSCKVSGYTLTELSMHWVRQAPGKGLEWMGGFDPEDGETIYAQKFQGRVMMTEDTSTDTAFMDLSSLRSEDTAVYYCATDDMLTPHYLYFGMDVWGQGTTVTVSS VL: DIQMTQSPSSLSASVGDRVTITCRASQGIRNDLGWYQQKPGKAPKRLIYATSSLQSGVPSRFSGSGSGTEFTLTISSLQPEDFATYYCLQHNTYPFTFGPGTKVDIKR , state its measured ELISA OD.
**Result** 0.167

**Query** Using the record for anti-MCP-1 mAb 5.3.1 (antibody, V domains shown) VH: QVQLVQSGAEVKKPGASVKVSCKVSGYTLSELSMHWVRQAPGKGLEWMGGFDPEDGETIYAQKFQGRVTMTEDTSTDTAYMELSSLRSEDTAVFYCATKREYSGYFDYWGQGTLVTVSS VL: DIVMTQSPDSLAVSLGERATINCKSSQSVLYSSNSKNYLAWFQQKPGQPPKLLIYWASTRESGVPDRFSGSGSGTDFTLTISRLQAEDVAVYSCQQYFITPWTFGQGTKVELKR , state its measured ELISA OD.
**Result** 0.045
